Target: SSTR5 (Homo sapiens (Human), UniProt P35346)
Sequence (P35346 whole entry): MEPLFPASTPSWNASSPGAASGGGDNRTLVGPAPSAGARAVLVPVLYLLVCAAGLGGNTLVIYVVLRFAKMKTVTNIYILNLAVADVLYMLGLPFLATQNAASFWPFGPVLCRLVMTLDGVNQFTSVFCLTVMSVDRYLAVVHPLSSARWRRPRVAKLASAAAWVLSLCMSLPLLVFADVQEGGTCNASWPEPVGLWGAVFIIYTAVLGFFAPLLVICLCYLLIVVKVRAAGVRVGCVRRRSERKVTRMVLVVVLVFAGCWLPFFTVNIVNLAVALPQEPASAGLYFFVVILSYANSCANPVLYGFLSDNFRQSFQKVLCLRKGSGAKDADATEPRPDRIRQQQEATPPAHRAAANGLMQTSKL
Assay: SSTR5 binding assay
Conditions: CHO-K1 membranes expressing cloned human SSTR5
Where a name gives a salt, the structure may show the parent alone.
Let's look at some compounds and their measured IC50.
Answer in nM, number only, no unit symbol.

# annotated cases, reported IC50 shown
INSERT INTO assay_data (compound, measured_metric, reported_result) VALUES
  ('CC(C)(C)n1cc(CN2CCC3(CC2)CN(c2ccc(C(=O)O)cc2)C(=O)O3)c(-c2ccc(F)c(F)c2F)n1 [Example 1-1, TFA salt]', 'IC50', 2.23),
  ('O=C(O)c1ccc(N2CC3(CCN(Cc4cn(C5CCCCC5)nc4-c4cccc(C(F)(F)F)c4)CC3)OC2=O)cc1 [Example 1-5, TFA salt]', 'IC50', 1.53),
  ('CCOc1cc(CN2CCCC3(CC2)CN(c2ccc(C(=O)O)cc2)C(=O)O3)cc(OCC)c1-c1ccc(F)cc1 (stereo not drawn) [Example 2-12, TFA salt]', 'IC50', 4.93),
  ('COc1ccc(-c2nc(C(C)(C)C)sc2CN2CCC3(CC2)CN(c2ccc(C(=O)O)cc2)C(=O)O3)cc1 [Example 6-29, TFA salt]', 'IC50', 0.705);

Query: Form field: reported IC50 of CCCn1nc(CN2CCC3(CC2)CN(c2ccc(C(=O)O)cc2)C(=O)O3)c2ccc(OC)cc21 [Example 6-3, TFA salt]
Reply: 156

Query: Continue with CCOc1cc(CN2CCC3(CC2)CN(c2cncc(O)c2)C(=O)O3)cc(OCC)c1-c1ccc(F)cc1 [Example 3-2, TFA salt]
Reply: 1.46

* * *

Target: SSTR5 (Homo sapiens (Human), UniProt P35346)
Experiment: SSTR5 binding assay
Conditions: CHO-K1 membranes expressing cloned human SSTR5
Where a name gives a salt, the structure may show the parent alone.
MEASURED METRIC: log10 of IC50 (log10 of the value in nM)
The common logarithm of IC50 in nM is what is listed.

For orientation, consider the following solved cases.
INSERT INTO results (compound, reported_result) VALUES
  ('CCOc1cc(CN2CCC3(CC2)CN(c2ccc(C(=O)O)c(C)c2)C(=O)O3)cc(OCC)c1-c1ccc(F)cc1 [Example 3-8, TFA salt]', 0.15),
  ('CC(C)n1nc(CN2CCC3(CC2)CN(c2ccc(C(=O)O)cc2)C(=O)O3)c2cc(F)ccc21 [Example 6-5, TFA salt]', 2.17),
  ('CCOc1ccc(-c2ccc(F)c(F)c2)c(CN2CCC3(CC2)CN(c2ccc(C(=O)O)cc2)C(=O)O3)c1 [Example 4-4, TFA salt]', -0.30),
  ('CC(C)(C)n1cc(CN2CCC3(CC2)CN(c2ccc(C(=O)O)cc2)C(=O)O3)c(-c2c(F)cc(F)cc2F)n1 [Example 1-8, TFA salt]', 0.33),
  ('O=C(O)c1ccc(N2CC3(CCN(Cc4cn(-c5ccccc5)nc4-c4ccccc4)CC3)OC2=O)cc1 [Example 1-3, TFA salt]', 0.45);

Please find the next compound below.
Query: Any idea what its log10 of IC50 is? The compound is Cc1cc(-c2ccc(F)nc2)c(CN2CCC3(CC2)CN(c2ccc(C(=O)O)cc2)C(=O)O3)cc1Cl [Example 4-25, TFA salt]
Reply: 0.12

This collection of values is drawn from patent US8742110B2.
